Experiment: self-splicing fitness, log relative to wild type (ln ratio); higher = more splicing; Tetrahymena group I intron in knt gene, E. coli kanamycin selection, DiMSum; sequences stand for … in CUCUCU…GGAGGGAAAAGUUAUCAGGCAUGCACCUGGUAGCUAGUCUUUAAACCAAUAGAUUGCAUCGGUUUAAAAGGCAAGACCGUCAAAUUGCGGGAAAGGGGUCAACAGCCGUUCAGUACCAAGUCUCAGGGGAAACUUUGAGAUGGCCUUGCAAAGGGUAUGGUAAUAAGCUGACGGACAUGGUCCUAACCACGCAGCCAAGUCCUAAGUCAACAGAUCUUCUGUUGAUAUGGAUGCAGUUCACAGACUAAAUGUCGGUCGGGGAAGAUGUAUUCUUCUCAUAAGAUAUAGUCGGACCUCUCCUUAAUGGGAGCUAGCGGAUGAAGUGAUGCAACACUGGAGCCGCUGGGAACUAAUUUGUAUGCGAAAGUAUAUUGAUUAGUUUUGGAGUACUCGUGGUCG;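 further: selection with 25 µg/mL kanamycin versus none on LB agar overnight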
Details: 30 °C
Property label: self-splicing fitness (ln)
I'd appreciate a reply containing only the number, no unit.

[ask] Give its self-splicing fitness (ln) value. Item: "UAGUAGCAAUAUUACGGAUA"
[reply] -2.7

[ask] Give its self-splicing fitness (ln) value. Item: "GGUUAGCAAUAUUACGAGCU"
[reply] -2.61

[ask] Give its self-splicing fitness (ln) value. Item: "GUAUAGCAAUAUUACGUGGG"
[reply] -3.28

[ask] Give its self-splicing fitness (ln) value. Item: "ACCGAGCAAUAUUACGUGUA"
[reply] -2.2

[ask] Give its self-splicing fitness (ln) value. Item: "UCGUAGCAAUAUUACGGGGG"
[reply] -3.07

[ask] Give its self-splicing fitness (ln) value. Item: "GAUUAGCAAUAUUACGGAAG"
[reply] -2.01

[ask] Give its self-splicing fitness (ln) value. Item: "CACGAGCAAUAUUACGAUCA"
[reply] -2.68

[ask] Give its self-splicing fitness (ln) value. Item: "CGUAAGCAAUAUUACGCCGC"
[reply] -1.76

[ask] Give its self-splicing fitness (ln) value. Item: "UAAGAGCAAUAUUACGCUAU"
[reply] -3.95

[ask] Give its self-splicing fitness (ln) value. Item: "UCACAGCAAUAUUACGGUUU"
[reply] -2.56

[ask] Give its self-splicing fitness (ln) value. Item: "GGCAAGCAAUAUUACGGAGA"
[reply] -2.37

[ask] Give its self-splicing fitness (ln) value. Item: "GCGUAGCAAUAUUACGUUUA"
[reply] -2.16

[ask] Give its self-splicing fitness (ln) value. Item: "CUGCAGCAAUAUUACGGGUA"
[reply] -3.32

[ask] Give its self-splicing fitness (ln) value. Item: "CCAGAGCAAUAUUACGCAUU"
[reply] -3.53

[ask] Give its self-splicing fitness (ln) value. Item: "UCAUAGCAAUAUUACGGCUG"
[reply] -1.33

[ask] Give its self-splicing fitness (ln) value. Item: "UUCCAGCAAUAUUACGGGUC"
[reply] -2.91

---

Experiment: self-splicing fitness, log relative to wild type (ln ratio); higher = more splicing; Tetrahymena group I intron in knt gene, E. coli kanamycin selection, DiMSum; sequences stand for … in CUCUCU…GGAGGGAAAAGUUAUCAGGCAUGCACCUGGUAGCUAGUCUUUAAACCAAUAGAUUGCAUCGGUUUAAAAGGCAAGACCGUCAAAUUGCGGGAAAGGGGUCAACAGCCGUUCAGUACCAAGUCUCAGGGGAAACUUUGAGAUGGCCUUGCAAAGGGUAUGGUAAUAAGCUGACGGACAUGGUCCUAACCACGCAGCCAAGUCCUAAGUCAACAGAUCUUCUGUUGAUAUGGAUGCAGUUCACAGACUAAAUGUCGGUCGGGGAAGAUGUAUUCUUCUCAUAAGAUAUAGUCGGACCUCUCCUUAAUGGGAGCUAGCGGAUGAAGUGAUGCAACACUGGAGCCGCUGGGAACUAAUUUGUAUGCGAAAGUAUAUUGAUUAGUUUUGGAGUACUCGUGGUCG
Conditions: 30 °C
So I've got a bunch of sequences here, and I need their self-splicing fitness (ln) values.
I'd appreciate a reply containing only the number, no unit.

[ask] Give its self-splicing fitness (ln) value. Item: "GGGAAGCAAUAUUACGUGAC"
[reply] -1.99

[ask] Give its self-splicing fitness (ln) value. Item: "AUACAGCAAUAUUACGCGCG"
[reply] -0.869

[ask] Give its self-splicing fitness (ln) value. Item: "GCUAAGCAAUAUUACGCGGA"
[reply] -2.73

[ask] Give its self-splicing fitness (ln) value. Item: "CUACAGCAAUAUUACGAAUA"
[reply] -3.07

[ask] Give its self-splicing fitness (ln) value. Item: "UGCUAGCAAUAUUACGAAUC"
[reply] -3.2

[ask] Give its self-splicing fitness (ln) value. Item: "AACGAGCAAUAUUACGCUGA"
[reply] -1.64

[ask] Give its self-splicing fitness (ln) value. Item: "GAGCAGCAAUAUUACGCCAA"
[reply] -1.55

[ask] Give its self-splicing fitness (ln) value. Item: "AUUCAGCAAUAUUACGGGGC"
[reply] -3.25

[ask] Give its self-splicing fitness (ln) value. Item: "UUCGAGCAAUAUUACGUGUA"
[reply] -2.65

[ask] Give its self-splicing fitness (ln) value. Item: "AUACAGCAAUAUUACGCUUG"
[reply] -1.35

[ask] Give its self-splicing fitness (ln) value. Item: "AUUAAGCAAUAUUACGGCUU"
[reply] -0.718

[ask] Give its self-splicing fitness (ln) value. Item: "CUCAAGCAAUAUUACGGAUU"
[reply] -3.66

[ask] Give its self-splicing fitness (ln) value. Item: "GCAGAGCAAUAUUACGGUUU"
[reply] -2.82

[ask] Give its self-splicing fitness (ln) value. Item: "CUGCAGCAAUAUUACGUCCC"
[reply] -1.66

[ask] Give its self-splicing fitness (ln) value. Item: "CUUGAGCAAUAUUACGGCGG"
[reply] -1.13

[ask] Give its self-splicing fitness (ln) value. Item: "AUUCAGCAAUAUUACGCUAU"
[reply] -1.45

---

Assay: self-splicing fitness, log relative to wild type (ln ratio); higher = more splicing; Tetrahymena group I intron in knt gene, E. coli kanamycin selection, DiMSum; sequences stand for … in CUCUCU…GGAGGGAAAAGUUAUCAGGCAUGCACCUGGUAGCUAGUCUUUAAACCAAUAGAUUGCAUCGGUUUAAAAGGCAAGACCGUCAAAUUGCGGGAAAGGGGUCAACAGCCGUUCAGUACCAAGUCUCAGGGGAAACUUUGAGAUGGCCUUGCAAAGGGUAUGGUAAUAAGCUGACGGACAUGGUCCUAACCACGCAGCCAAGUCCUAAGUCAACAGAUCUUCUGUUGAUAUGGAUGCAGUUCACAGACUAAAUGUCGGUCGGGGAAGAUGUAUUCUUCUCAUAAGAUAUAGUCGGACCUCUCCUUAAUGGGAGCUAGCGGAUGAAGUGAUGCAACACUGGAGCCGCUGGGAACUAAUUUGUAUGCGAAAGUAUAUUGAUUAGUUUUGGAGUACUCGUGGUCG
Conditions: 37 °C
So I've got a bunch of sequences here, and I need their self-splicing fitness (ln) values.
I'd appreciate a reply containing only the number, no unit.

[ask] Give its self-splicing fitness (ln) value. Item: "GGACAGCAAUAUUACGCAUA"
[reply] 0.314

[ask] Give its self-splicing fitness (ln) value. Item: "GGCAAGCAAUAUUACGGUCC"
[reply] -2.1

[ask] Give its self-splicing fitness (ln) value. Item: "UGCCAGCAAUAUUACGCGAU"
[reply] -1.88

[ask] Give its self-splicing fitness (ln) value. Item: "CAAGAGCAAUAUUACGCGAA"
[reply] -2.98

[ask] Give its self-splicing fitness (ln) value. Item: "CUGAAGCAAUAUUACGGAGC"
[reply] -0.931

[ask] Give its self-splicing fitness (ln) value. Item: "CUCUAGCAAUAUUACGGGAG"
[reply] -2.26

[ask] Give its self-splicing fitness (ln) value. Item: "GAUUAGCAAUAUUACGUAGU"
[reply] -1.34

[ask] Give its self-splicing fitness (ln) value. Item: "CUUGAGCAAUAUUACGCGCU"
[reply] -1.22

[ask] Give its self-splicing fitness (ln) value. Item: "AUAGAGCAAUAUUACGAUUC"
[reply] -1.08

[ask] Give its self-splicing fitness (ln) value. Item: "UGCCAGCAAUAUUACGCCCG"
[reply] 0.404

[ask] Give its self-splicing fitness (ln) value. Item: "UCAGAGCAAUAUUACGCGGU"
[reply] -3.04

[ask] Give its self-splicing fitness (ln) value. Item: "CGGGAGCAAUAUUACGAUAA"
[reply] -2.57

[ask] Give its self-splicing fitness (ln) value. Item: "UUGCAGCAAUAUUACGUCUC"
[reply] -0.311

[ask] Give its self-splicing fitness (ln) value. Item: "ACCCAGCAAUAUUACGGUCU"
[reply] -0.171

[ask] Give its self-splicing fitness (ln) value. Item: "GCAGAGCAAUAUUACGACGG"
[reply] -1.21

[ask] Give its self-splicing fitness (ln) value. Item: "CAAUAGCAAUAUUACGGCUC"
[reply] -0.901

[ask] Give its self-splicing fitness (ln) value. Item: "AACUAGCAAUAUUACGCCUA"
[reply] -0.206

[ask] Give its self-splicing fitness (ln) value. Item: "ACGGAGCAAUAUUACGGCAG"
[reply] -1.07

[ask] Give its self-splicing fitness (ln) value. Item: "CCAGAGCAAUAUUACGUCUA"
[reply] -2.23

[ask] Give its self-splicing fitness (ln) value. Item: "UCAAAGCAAUAUUACGAUAU"
[reply] -2.67

[ask] Give its self-splicing fitness (ln) value. Item: "GUUGAGCAAUAUUACGUACG"
[reply] -2.31

[ask] Give its self-splicing fitness (ln) value. Item: "GUAGAGCAAUAUUACGGAAU"
[reply] -1.18

[ask] Give its self-splicing fitness (ln) value. Item: "UAAUAGCAAUAUUACGAGGG"
[reply] -1.73

[ask] Give its self-splicing fitness (ln) value. Item: "CAGCAGCAAUAUUACGAUCG"
[reply] 0.219

[ask] Give its self-splicing fitness (ln) value. Item: "CCGCAGCAAUAUUACGGAGG"
[reply] -1.81

[ask] Give its self-splicing fitness (ln) value. Item: "UGGCAGCAAUAUUACGGAUA"
[reply] -0.358

[ask] Give its self-splicing fitness (ln) value. Item: "AUGCAGCAAUAUUACGACUU"
[reply] 0.224

[ask] Give its self-splicing fitness (ln) value. Item: "CAUGAGCAAUAUUACGGGGC"
[reply] -2.35

[ask] Give its self-splicing fitness (ln) value. Item: "AGUUAGCAAUAUUACGAUCG"
[reply] -0.0837

[ask] Give its self-splicing fitness (ln) value. Item: "CGGCAGCAAUAUUACGGUAC"
[reply] -2.9

[ask] Give its self-splicing fitness (ln) value. Item: "GCGGAGCAAUAUUACGCAGU"
[reply] -1.79

[ask] Give its self-splicing fitness (ln) value. Item: "UCGUAGCAAUAUUACGUCGC"
[reply] -1.37

[ask] Give its self-splicing fitness (ln) value. Item: "ACUAAGCAAUAUUACGAGUG"
[reply] -0.758

[ask] Give its self-splicing fitness (ln) value. Item: "AUAUAGCAAUAUUACGGGCG"
[reply] -0.59
